- System: A549
- ASSAY_SUMMARY: Cytotoxicity against human A549 cells assessed as reduction in cell viability by CCK-8 assay
- Format: functional, cell-based
# reported IC50; entries follow
PROPERTY_MEASURED: IC50

{"COMPOUND": "C=C(C)[C@@H]1CC[C@]2(C(=O)OCCCCCn3ccnc3)CC[C@]3(C)[C@H](C[C@H]4OC(=O)C[C@@H](O)[C@]5(C)[C@@H]4[C@@]3(C)CC[C@H]5C(=C)C)[C@@H]12", "VALUE_REPORTED": "25.2 µM"}
{"COMPOUND": "C=C(C)[C@@H]1CC[C@]2(C(=O)OCCCCCBr)CC[C@]3(C)[C@H](C[C@@H](O)[C@@H]4[C@@]5(C)C(CC(=O)OC)OC(C)(C)C5CC[C@]43C)[C@@H]12 (stereo not given in full)", "VALUE_REPORTED": "40.6 µM"}
{"COMPOUND": "C=C(C)[C@@H]1CC[C@]2(C(=O)OCCCCCCn3ccnc3)CC[C@]3(C)[C@H](C[C@@H](O)[C@@H]4[C@@]5(C)C(CC(=O)OC)OC(C)(C)C5CC[C@]43C)[C@@H]12 (stereo not given in full)", "VALUE_REPORTED": "26.1 µM"}
{"COMPOUND": "C=C(C)[C@@H]1CC[C@]2(C(=O)OCCCCn3ccnc3)CC[C@]3(C)[C@H](C[C@H]4OC(=O)C[C@@H](O)[C@]5(C)[C@@H]4[C@@]3(C)CC[C@H]5C(=C)C)[C@@H]12", "VALUE_REPORTED": "32.7 µM"}
{"COMPOUND": "C=C(C)[C@@H]1CC[C@]2(C(=O)OCCCCn3ccnc3C)CC[C@]3(C)[C@H](C[C@@H](O)[C@@H]4[C@@]5(C)C(CC(=O)OC)OC(C)(C)C5CC[C@]43C)[C@@H]12 (stereo not given in full)", "VALUE_REPORTED": "31.4 µM"}

----------
- Tested on: A549
- ASSAY_SUMMARY: Cytotoxicity against human A549 cells assessed as reduction in cell viability by CCK-8 assay
- Format: functional, cell-based
Quick rule for you: IC50 under 20 µM gets Yes, anything else gets No.

{"COMPOUND": "C=C(C)[C@@H]1CC[C@]2(C(=O)OCCCCCCn3ccnc3CC)CC[C@]3(C)[C@H](C[C@@H](O)[C@@H]4[C@@]5(C)C(CC(=O)OC)OC(C)(C)C5CC[C@]43C)[C@@H]12 (stereo not given in full)", "TARGET_UNDER_TEST": "A549", "GROUP": "No"}
{"COMPOUND": "C=C(C)[C@@H]1CC[C@]2(C(=O)OCCCn3ccnc3C)CC[C@]3(C)[C@H](C[C@@H](O)[C@@H]4[C@@]5(C)C(CC(=O)OC)OC(C)(C)C5CC[C@]43C)[C@@H]12 (stereo not given in full)", "TARGET_UNDER_TEST": "A549", "GROUP": "No"}
{"COMPOUND": "C=C(C)[C@@H]1CC[C@]2(C(=O)OCCCCCn3cc(CCN)c4ccccc43)CC[C@]3(C)[C@H](C[C@H]4OC(=O)C[C@@H](O)[C@]5(C)[C@@H]4[C@@]3(C)CC[C@H]5C(=C)C)[C@@H]12", "TARGET_UNDER_TEST": "A549", "GROUP": "Yes"}
{"COMPOUND": "C=C(C)[C@@H]1CC[C@]2(C(=O)OCCCn3ccnc3CC)CC[C@]3(C)[C@H](C[C@@H](O)[C@@H]4[C@@]5(C)C(CC(=O)OC)OC(C)(C)C5CC[C@]43C)[C@@H]12 (stereo not given in full)", "TARGET_UNDER_TEST": "A549", "GROUP": "No"}
{"COMPOUND": "C=C(C)[C@@H]1CC[C@]2(C(=O)OCCCCn3ccnc3C)CC[C@]3(C)[C@H](C[C@H]4OC(=O)C[C@@H](O)[C@]5(C)[C@@H]4[C@@]3(C)CC[C@H]5C(=C)C)[C@@H]12", "TARGET_UNDER_TEST": "A549", "GROUP": "No"}

Data origin: ChEMBL document CHEMBL5143734
